Measured values drawn from PubChem BioAssay AID2098 for this set.

- procedure_details: blocking HSF1-driven luciferase expression – cell-based, NIH3T3, luminescence, primary screen (AID 2098);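 note: luciferase reports HSF-1 transcriptional activity via heat shock element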
- condition_label: NIH3T3-HGL HSE-luciferase, MG132-induced, luminescence 8 h; screened at 7.5 µM (by protocol)
Among all 300,000 compounds or so, about 2,300 (0.77%) were called active.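 Rule for the calls: active = more than half of replicate wells show activity change below -50%, luminescence cut by over half; inconclusive = some wells, but at most half, below -50%; inactive = no replicate well below -50%.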 The entries come from a sample that favours actives as a whole.
Please answer using one outcome listed in active, inactive

# example entries with known answers
compound	class_assignment
O=C(NC1CCCCC1)c1ccc(-c2ccc(Cl)cc2)o1	inactive
C=CCSc1nnc2c(n1)-c1cccc3cccc-2c13	inactive
COc1ccc(S(=O)(=O)NCC(c2ccco2)N2CCOCC2)cc1 (configuration not stated)	inactive
COc1ccc(/C=N/NC(=O)CNC(=O)c2ccc(S(=O)(=O)N3CCCC3)cc2)c(OC)c1	inactive
CCOc1ccc(N(CC(=O)NC2CCCCCC2)S(=O)(=O)c2c(C)[nH]c(=O)[nH]c2=O)cc1	inactive
CCN(CC)c1ccc(NC(=O)c2ccc(=O)[nH]c2)cc1S(=O)(=O)Nc1ccc(OC)cc1	inactive

QUERY: Entry CCC(=O)N1CCc2cc(Br)c(S(=O)(=O)NCCN3CCCCC3CC)cc21 (configuration not stated) : call = ?
RESULT: inactive

QUERY: Field: outcome | Entry: Cc1cc(C)c(SCCc2ccncc2)c(C)c1
RESULT: inactive

QUERY: Which outcome did this test record for the compound COc1ccc(C(C)NC(=S)NC2CCCCC2)cc1OC (configuration not stated) ?
RESULT: active

QUERY: Tell me the recorded outcome of this test for CCOc1ccc(S(=O)(=O)Nc2cccc(C(=O)NCC3(N4CCCCC4)CCCCC3)c2)cc1 .
RESULT: inactive

QUERY: Test call, this compound: N/C(=N\OC(=O)CCC1CCCCC1)c1ccccn1
RESULT: inactive

QUERY: # lookup: test call for Cc1ccc(OCC(=O)c2cc(C)n(Cc3ccco3)c2C)c([N+](=O)[O-])n1
RESULT: inactive

QUERY: Record request — test call for COc1ccc(N(CC(=O)NC2CCCCCCC2)S(=O)(=O)c2c(C)nn(C)c2C)cc1
RESULT: active

QUERY: Tell me the assay call for COc1ccc(Cl)cc1C(=O)NNC(=S)NC1CCCC1 please.
RESULT: inactive

QUERY: Please share the test call associated with COc1ccc(-c2ccc3nnc(SCC(=O)Nc4ccc(NC(C)=O)cc4)n3n2)cc1 .
RESULT: inactive
